ASSAY_REMARKS: Photostability protocol: thin film irradiated with xenon arc lamp
Assay type: physicochemical
ASSAY_CONDITIONS: 1 hour xenon arc lamp, ratio of absorbance at λmax irradiated vs unirradiated, ^a = average of multiple measurements
Reported Photostability values for a set of compounds
Give the value, in units of %, as a plain number.

Short answer for CCOC(=O)C(=O)/C(=C/N(c1ccccc1)c1ccccc1)c1ccccc1 [Compound 237] : Photostability was 83

---
Form: compound = CCCCC(CC)COC(=O)C(=O)/C(=C/N1CCc2cc(C(=O)OC)ccc21)c1ccccc1 (stereo not drawn) [Compound 278] ; Photostability = 88

CCCN(/C=C(/C(=O)C(F)(F)F)c1ccccc1)c1ccccc1 [Compound 233] has a reported Photostability of 87

// Photostability lookup, compound = COC(=O)c1ccc2c(c1)CCN2/C=C(/C(=O)c1ccccc1O[Si](C)(C)C(C)(C)C)c1ccccc1 [Compound 302] , result: 45

Form: compound = CCN(/C=C(/C(=O)c1ccccc1C)c1ccccc1)c1ccccc1 [Compound 252] ; Photostability = 48

Query COc1ccccc1C(=O)/C(=C/N(c1ccccc1)c1ccccc1)c1ccccc1 [Compound 285] yields Photostability of 76

Lab note: measured Photostability of Cc1ccccc1C(=O)/C(=C/N1CCc2ccccc21)c1ccccc1 [Compound 251] was 52

In plain terms, CCN(/C=C(/C(=O)c1ccccc1OC)c1ccccc1)c1ccccc1 [Compound 276] has a documented Photostability of 56

Documented Photostability of COC(=O)c1ccc2c(c1)CCN2/C=C(/C(=O)c1ccccc1)c1ccccc1 [Compound 247] : 76

Please fill in: Photostability reported for CN(C)C(=O)C(=O)/C(=C/N(c1ccccc1)c1ccccc1)c1ccccc1 [Compound 257] = 85

Photostability measured on Cc1ccc(C(=O)/C(=C/N(c2ccccc2)c2ccccc2)c2ccccc2)cc1 [Compound 274] = 76

// Photostability value for CCN(/C=C(\C(=O)C(F)(F)F)c1ccccc1)c1ccccc1 [Compound 142] : 99

Consider O=C(/C(=C/N(c1ccccc1)c1ccccc1)c1ccccc1)c1ccccc1 [Compound 244] . Its measured Photostability is 58

Photostability in this record for COC(=O)c1ccc2c(c1)CCN2/C=C(\C(=O)C(F)(F)F)c1ccccc1 [Compound 201] : 97

Entry CCN(/C=C(\C(=O)C(=O)N(C)C)c1ccccc1)c1ccccc1 [Compound 259] , Photostability reported as 66

###

ASSAY_REMARKS: UV absorbance spectrum in solution (λmax, λcrit, extinction coefficients)
Type: physicochemical
ASSAY_CONDITIONS: critical wavelength
READOUT: λcrit (nm)
// units = nm; emit number, no label

get_value(item= CCN(/C=C(/C(=O)c1ccccc1C)c1ccccc1)c1ccccc1 , readout=λcrit) returns 359

response.value for O=C(/C(=C\N1CCCC1)c1ccccc1)C(F)(F)F (field: λcrit) = 354

According to the records, this molecule CCCCC(CC)COC(=O)c1ccc(N(/C=C(\C(=O)C(F)(F)F)c2ccccc2)c2ccccc2)cc1 (stereo not drawn) displays λcrit of 381

Lab note: measured λcrit of COC(=O)c1ccc2c(c1)CCN2C=C(C(=O)C(C)(C)C)c1ccc(C(C)(C)C)cc1 was 384

// λcrit value for CCN(/C=C(\C(=O)C(F)(F)F)c1ccccc1)c1cccc(C)c1 : 367

Given item O=C(/C(=C/N(c1ccccc1)c1ccccc1)c1ccccc1)c1ccccc1 , the value recorded as its λcrit is 383

Measured λcrit of N#CCC(=O)/C(=C\N1CCc2ccccc21)c1ccccc1 : 361

Entry CCN(/C=C(/C(=O)C(F)(F)F)c1ccccc1)c1ccc(C(=O)OC)cc1 ; λcrit = 375

Proceeding to the next molecule to report its λcrit.
Field λcrit (entry O=C(/C(=C\N1CCCc2ccccc21)c1ccccc1)C(F)(F)F ) reads 383

###

ASSAY_REMARKS: % transmission spectrum of 0.1% solution (breakthrough, steepness)
Format: physicochemical
ASSAY_CONDITIONS: distance in nm over which transmittance increases from 1 to 80%
READOUT: Steepness
Give the number first and the unit second.

Below, each entry is followed by its recorded Steepness result.
# Steepness of CN(C)S(=O)(=O)c1ccc(C(=O)/C(=C/N(c2ccccc2)c2ccccc2)c2ccccc2)cc1 = 48 nm

// sample Cc1ccc(C(=O)/C(=C/N2CCc3ccccc32)c2ccccc2)cc1 , its Steepness was 35 nm

Next:
// sample CCCCC(CC)COC(=O)c1ccc2c(c1)CCN2C=C(C(=O)C(C)(C)C)c1ccccc1 (centres unmarked) , its Steepness was 16 nm

Quick note, Steepness for CCCCC(CC)COC(=O)c1cccc(N(/C=C(/C(=O)C(F)(F)F)c2ccccc2)CC)c1 (centres unmarked) landed at 35 nm

Steepness measured on Cc1cc(C)c(C(=O)/C(=C/N(c2ccccc2)c2ccccc2)c2ccccc2)c(C)c1 = 32 nm

# Steepness of CCCCC(CC)COC(=O)c1ccc(N(/C=C(\C(=O)C(F)(F)F)c2ccccc2)c2ccccc2)cc1 (centres unmarked) = 34 nm

Reported Steepness for CCN(/C=C(/C(=O)c1ccc(C)cc1)c1ccccc1)c1ccccc1 was 37 nm

Form: compound = COC(=O)c1ccc2c(c1)CCN2/C=C(/C(=O)C(=O)OC(C)(C)C)c1ccccc1 ; Steepness = 26 nm

CCCCC(CC)COC(=O)C(=O)/C(=C/N1CCc2cc(C(=O)OC)ccc21)c1ccccc1 (centres unmarked) has a reported Steepness of 30 nm

Reported Steepness of CCOC(=O)C(=O)/C(=C\N1CCc2ccccc21)c1ccccc1 : 34 nm

// field: Steepness; key: O=C(/C(=C/N1CCc2ccccc21)c1ccccc1)c1ccccc1 ; value = 37 nm

###

ASSAY_REMARKS: UV absorbance spectrum in solution (λmax, λcrit, extinction coefficients)
Assay type: physicochemical
ASSAY_CONDITIONS: molar extinction coefficient; in M-1 cm-1 (unit assumed)
Parameter threshold = 30000. Response is true when ε meets or exceeds it, else false.

Please review the following examples before continuing.
Could you tell me if the measured ε of CN(C)/C=C(/C(=O)c1ccccc1)c1ccccc1 [Compound 240] reaches 30000 or more?
false

Hello, I need to know if CCOC(=O)C(=O)/C(=C\N1CCc2ccccc21)c1ccccc1 [Compound 231] has measured ε not below 30000. Thanks!
true

Is it the case that COc1ccccc1C(=O)/C(=C/N1CCc2ccccc21)c1ccccc1 [Compound 275] has ε reaching or exceeding 30000?
true

Next:
Textbook exercise: given the entry CN(C)S(=O)(=O)c1ccc(C(=O)/C(=C/N(c2ccccc2)c2ccccc2)c2ccccc2)cc1 [Compound 265] , state whether its ε is greater than or equal to 30000.
false

Hello, I need to know if CCN(/C=C(/C(=O)c1ccccc1C)c1ccccc1)c1ccccc1 [Compound 252] has measured ε not below 30000. Thanks!
false

Test whether the compound CCC(CC)(CC)OC(=O)/C(=C/N1CCc2cc(C(=O)OC)ccc21)c1ccccc1 [Compound 289] records ε of 30000 or higher.
true

// inclusive: ε at least 30000? input: CCOC(=O)/C(=C\N(C)C)c1ccccc1 [Compound 171]
false

Quick check, ε >= 30000? CCN(/C=C(/C(=O)C(=O)OC(C)(C)C)c1ccccc1)c1ccccc1 [Compound 271]
false

###

ASSAY_REMARKS: UV absorbance spectrum in solution (λmax, λcrit, extinction coefficients)
Format: physicochemical
Excerpt: […]
READOUT: λmax (nm)
Answer with a number only, understood to be in nm.

Just so you know, measured λmax for O=C(/C(=C\N1CCN(/C=C(/C(=O)C(F)(F)F)c2ccccc2)CC1)c1ccccc1)C(F)(F)F came out at 339

Value of measured λmax for the entry CCN(CCOC(=O)c1ccc2c(c1)CCN2/C=C(\C(=O)C(F)(F)F)c1ccccc1)C(=O)OC(C)(C)C : 375

Noted for CCN(/C=C(\C(=O)C(F)(F)F)c1ccccc1)c1cccc(Br)c1 : its λmax reads 332

Lookup result for CCN(/C=C(\C(=O)C(=O)N(C)C)c1ccccc1)c1ccccc1 ; measured λmax: 326

For reference, reported λmax for CCC(CC)(CC)OC(=O)/C(=C/N1CCc2cc(C(=O)OC)ccc21)c1ccccc1 stands at 357

molecule O=C(/C(=C(/c1ccccc1)N1CCCC1)c1ccccc1)C(F)(F)F , λmax observed: 363

# λmax (molecule: CCN(/C=C(/C(=O)c1ccc(S(=O)(=O)N(C)C)cc1)c1ccccc1)c1ccccc1 ) is 340

Now for another entry.
The measured λmax associated with COC(=O)c1ccc2c(c1)CCN2/C=C(/C(=O)C(=O)Oc1ccccc1)c1ccccc1 reads 376

###

ASSAY_REMARKS: % transmission spectrum of 0.1% solution (breakthrough, steepness)
Type: physicochemical
ASSAY_CONDITIONS: distance in nm over which transmittance increases from 1 to 80%
READOUT: Steepness (nm)
Report as a plain number; the unit nm is understood.

In the examples that follow, each entry is paired with its recorded Steepness.
Record O=C(/C(=C\N(c1ccccc1)c1ccccc1)c1ccccc1)C(F)(F)F [Compound 143] . Reported Steepness: 32

Entry O=C(/C(=C\N1CCc2ccc(C(F)(F)F)cc21)c1ccccc1)C(F)(F)F [Compound 236] ; Steepness = 19

What the record says about O=C(/C(=C\N1CCc2ccccc21)c1ccccc1)C(F)(F)F [Compound 164] : Steepness is 20

Next:
Steepness in this record for COC(=O)c1ccc2c(c1)CCN2/C=C(/C(=O)c1ccc(C(C)(C)C)cc1)c1ccccc1 [Compound 287] : 35

Measured Steepness, CC(C)(C)C(=O)/C(=C/N(c1ccccc1)c1ccccc1)c1ccccc1 [Compound 294] : 28

Record summary for CCOC(=O)C(=O)/C(=C\N(CC)c1ccccc1)c1ccccc1 [Compound 248] : reported Steepness = 38

In plain terms, CCN(/C=C(/C(=O)C(=O)OC(C)(C)C)c1ccccc1)c1ccccc1 [Compound 271] has a documented Steepness of 36
